All figures here come from PubChem BioAssay (NCI).

- Test system: U251 CNS
- assay-text: NCI tumour cell line growth inhibition, 48 h
test-readout: TGI

>>> observed_measurement("CN(C)S(=O)(=O)c1nc(Cl)c2[nH]cnc2n1")
"> 100 µM"
>>> observed_measurement("COc1ccc2[nH]c3c(c2c1)CC(=O)N1CCC[C@H](C1)CC31OCCCO1")
"> 100 µM"
>>> observed_measurement("COc1cnccc1Nc1nc(-c2nn(Cc3c(F)cc(OCCO)cc3F)c3ccccc23)ncc1OC")
"3.76 µM"
>>> observed_measurement("Cc1ccc(Nc2nc(-c3ccc(-c4ccc([N+](=O)[O-])cc4)o3)cs2)cc1")
"> 100 µM"
>>> observed_measurement("COc1cc(/C=C/C(=N\\NC(N)=S)c2sc(NNC(C)=O)nc2C)ccc1O")
"> 100 µM"

* * *

- Tested on: TK-10 renal
- assay-text: NCI tumour cell line growth inhibition, 48 h
Where a SMILES comes first, the peptide text is derived from it. [ ]: non-standard residue; d: D form. The star is where a group is joined. ξ: configuration not given here. NMeF = CN[C@@H](Cc1ccccc1)C(=O)O; NMeV = CN[C@H](C(=O)O)C(C)C; ξNMeV = CNC(C(=O)O)C(C)C; Boc = CC(C)(C)OC(=O)*; OBn = c1ccc(CO*)cc1
test-readout: TGI

>>> observed_measurement("CC(C)C(C(=O)N(C)[C@H](C(=O)N1CCC[C@H]1C(=O)N(C)[C@@H](Cc1ccccc1)C(=O)OCc1ccccc1)C(C)C)N(C)C(=O)[C@@H](NC(=O)OC(C)(C)C)C(C)C (stereo not given in full) (Boc-V[ξNMeV][NMeV]P[NMeF]-OBn)")
"> 31.6 µM"
>>> observed_measurement("CC(=O)NC(C)(C)C1CCC(C)CC1 (stereo not given)")
"> 100 µM"
>>> observed_measurement("COc1ccc(-c2c(-c3ccc(C#N)c(F)c3)nc(N3CCC(N)CC3)n(C)c2=O)cc1F")
"32.4 µM"
>>> observed_measurement("COc1cc(/C=C/C(=N\\NC(N)=S)c2sc(NNC(C)=O)nc2C)ccc1O")
"> 100 µM"
>>> observed_measurement("Cc1c(-c2ccccn2)ccc2ccccc12")
"> 100 µM"
>>> observed_measurement("Cc1nn2c(c1C#N)NNc1c-2sc(=N)nnc1=O")
"> 100 µM"
>>> observed_measurement("Cc1ccc(NC(=O)C2C3CCC(O3)C2C(=O)O)cc1 (stereo not given)")
"> 100 µM"
>>> observed_measurement("CC#CCCCC1(C)CCNC1=S (stereo not given)")
"> 10 µM"
>>> observed_measurement("CC(=O)Nc1ccc(/C=c2\\sc3nnc(-c4cccnc4)n3c2=O)cc1")
"57.3 µM"
>>> observed_measurement("Clc1ccc(-c2nc(NCc3ccco3)c3ccccc3n2)c(Cl)c1")
"7.1 µM"

* * *

- Test system: HOP-62 NSCLC
- assay-text: NCI tumour cell line growth inhibition, 48 h; in the data active = GI50 below about 0.43 µM; inactive = the rest
Labels: y (active), n (inactive)

>>> assigned_label("COc1ccc(-c2c(-c3ccc(C#N)c(F)c3)nc(N3CCC(N)CC3)n(C)c2=O)cc1F")
"n"
>>> assigned_label("CC(=O)c1c(C)c2cnc(Nc3ccc(N4CCNCC4)cn3)nc2n(C2CCCC2)c1=O")
"n"
>>> assigned_label("O=C(C(=CN1CCN(C(=O)c2ccco2)C1=S)C(=O)c1ccccc1)c1ccccc1")
"n"
>>> assigned_label("CC1=C(C(=O)Nc2ccc(Cl)c(Cl)c2)C(c2cccc(Cl)c2)NC(=S)N1 (stereo not given)")
"n"
>>> assigned_label("O=C1NC(=NCCc2ccc(Br)cc2)S/C1=C\\c1ccc2ncccc2c1")
"n"
>>> assigned_label("COc1cc(-c2ccc[nH]2)[nH]c1/C=C1\\N=C(C)C(CC(=O)OCC(C)(C)C)=C1C")
"y"
>>> assigned_label("CC/C=C\\C[C@H]1C/C=C2/C(=O)C(Cl)=C[C@@H]2C/C=C\\CCCC(=O)O1")
"n"
>>> assigned_label("COC(=O)CC1=C(C)/C(=C/c2[nH]c(-c3ccc[nH]3)cc2OC)N=C1C")
"y"
>>> assigned_label("CSc1ccc(C(=O)/C=C/c2ccc(Cl)cc2Cl)cc1")
"n"
>>> assigned_label("CC1=C[C@@H]2c3c(c(O)c(O)c4oc5cc(O)cc(O)c5c(=O)c34)[C@@H](c3cc(O)c(O)c4oc5cc(O)cc(O)c5c(=O)c34)[C@@H]2C(C)(C)C1")
"n"
>>> assigned_label("COc1ccc2c(c1)C(=O)c1c-2n(CCCN(C)C)c(=O)c2cc([N+](=O)[O-])ccc12")
"y"
>>> assigned_label("CCCCCCCCN=C(NCCCCCCCC)SCc1cccc2ccccc12")
"n"
>>> assigned_label("COc1ccc(-c2[nH]ncc2Nc2cc(OC)c(OC)c(OC)c2)cc1")
"n"
>>> assigned_label("C(=N\\Nc1ccc2ccccc2n1)/c1ccccn1")
"n"
>>> assigned_label("N#CC1=C(N)OC2=C(CCOc3c2ccc2ccccc32)C1c1ccc(Br)cc1 (stereo not given)")
"n"
